System: STING-induced IRF3 expression
PROTOCOL DESCRIPTION: Competition of 335504 with agonist 2,3-cGAMP in THP-1 cells
Type: cell-based, human
COND: Homo sapiens; THP-1 monocytic leukemia cells, with agonist 2,3-cGAMP, FIG. 7
pIC50: −log10 of the molar value.
QUANTITY NAME: pIC50

Please report the recorded pIC50 for Cc1c(Cl)cccc1Nc1ncccc1C(=O)OCC(O)CO (stereo not shown) .
~8.32

* * *

Here's a batch of compounds along with measured pKd for His-tagged human STING CDN domain (Homo sapiens, UniProt Q86WV6).
# pKd is unitless: minus log10 of the molar concentration; print number only

API: value(readout= pKd, system= His-tagged human STING CDN domain (Homo sapiens, UniProt Q86WV6), query= Nc1nc2c(ncn2[C@@H]2O[C@@H]3COP(=O)(O)O[C@H]4[C@@H](O)[C@H](n5cnc6c(=O)[nH]c(N)nc65)O[C@@H]4COP(=O)(O)O[C@H]3[C@H]2O)c(=O)[nH]1 )
5.32

Further cases:
API: value(readout= pKd, system= His-tagged human STING CDN domain (Homo sapiens, UniProt Q86WV6), query= Cc1c(Cl)cccc1Nc1ncccc1C(=O)OCC(O)CO (centres unmarked) )
6.37

* * *

TARGET: His-labeled STING (hSTING) (Homo sapiens, UniProt Q86WV6)
Sequence (Q86WV6 153-340 H232R limits assumed): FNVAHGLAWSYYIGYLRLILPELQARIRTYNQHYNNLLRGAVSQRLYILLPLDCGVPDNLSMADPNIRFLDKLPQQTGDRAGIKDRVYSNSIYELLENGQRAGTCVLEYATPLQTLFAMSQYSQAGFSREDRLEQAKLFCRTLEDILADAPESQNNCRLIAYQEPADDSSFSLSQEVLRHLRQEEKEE
QUANTITY NAME: pKd
# pKd is unitless: minus log10 of the molar concentration; print number only

API: value(readout= pKd, system= His-labeled STING (hSTING) (Homo sapiens, UniProt Q86WV6), query= Cc1c(Cl)cccc1Nc1ncccc1C(=O)OCC(O)CO (stereo not shown) )
6.59

* * *

System: STING pathway (interferon stimulated genes, IRF3 promoter)
PROTOCOL DESCRIPTION: Luciferase reporter assay in THP1-ISG-Lucia cells
COND: Homo sapiens, THP-1, read-out: luciferase assay EC50
QUANTITY NAME: pEC50
# pEC50 is unitless: minus log10 of the molar concentration; print number only

Please report the recorded pEC50 for Cc1c(Cl)cccc1Nc1ncccc1C(=O)OCC(O)CO (stereo not shown) [NSC 335504] .
4.54
